# System: HL-60
# ASSAY_SUMMARY: Antiproliferative activity against human HL60 cells after 72 hrs by XTT assay
# Assay type: functional, cell-based
# MEASUREMENT_CONDITIONS: HL-60, 72 h
PROPERTY_LABEL: log10 of IC50 (log10 of the value in nM)
Lab note - IC50 converted to log10 from values in nM.

SMILES_TEXT | NUMERIC_VALUE
CN(C)c1ncnc2c1c(-c1ccoc1)cn2[C@@H]1O[C@H](CO)[C@@H](O)[C@H]1O | 3.06

Qu. // lookup log10 of IC50 | system=HL-60 | key= `CN(C)c1ncnc2c1c(-c1ccco1)cn2[C@@H]1O[C@H](CO)[C@@H](O)[C@H]1O`
Ans. 2.34

Qu. // lookup log10 of IC50 | system=HL-60 | key= `CSc1ncnc2c1c(-c1cccs1)cn2[C@@H]1O[C@H](CO)[C@@H](O)[C@H]1O`
Ans. 3.05

Qu. Value wanted: log10 of IC50 (HL-60) of entry `Cc1ncnc2c1c(Br)cn2[C@@H]1O[C@H](CO)[C@@H](O)[C@H]1O`
Ans. 3.86

Qu. Any idea what log10 of IC50 came out for `Cc1nc(N)c2c(I)cn([C@@H]3O[C@H](CO)[C@@H](O)[C@H]3O)c2n1` on HL-60?
Ans. 3.31

Qu. Record lookup: for HL-60, what log10 of IC50 belongs to `CN(C)c1ncnc2c1c(-c1ccsc1)cn2[C@@H]1O[C@H](CO)[C@@H](O)[C@H]1O` ?
Ans. 3.28

Qu. Query for HL-60: what log10 of IC50 does the record show for `COc1ncnc2c1c(I)cn2[C@@H]1O[C@H](CO)[C@@H](O)[C@H]1O` ?
Ans. 3.36

----------
Reported pIC50 values are given for each entry in this list.
# Tested on: HL-60
# ASSAY_SUMMARY: Antiproliferative activity against human HL60 cells after 72 hrs by XTT assay
# Format: functional, cell-based
# MEASUREMENT_CONDITIONS: HL-60, 72 h
pIC50: −log10 of the molar value.

SMILES_TEXT | RESULT
CNc1ncnc2c1c(-c1ccoc1)cn2[C@@H]1O[C@H](CO)[C@@H](O)[C@H]1O | < 4.82
Cc1ncnc2c1c(-c1cccs1)cn2[C@@H]1O[C@H](CO)[C@@H](O)[C@H]1O | 5.24
COc1nc(N)nc2c1c(-c1cc3ccccc3o1)cn2[C@@H]1O[C@H](CO)[C@@H](O)[C@H]1O | < 4.70
CSc1ncnc2c1c(I)cn2[C@@H]1O[C@H](CO)[C@@H](O)[C@H]1O | 7.30
Cc1nc(N)c2c(-c3ccoc3)cn([C@@H]3O[C@H](CO)[C@@H](O)[C@H]3O)c2n1 | < 4.70

Qu. What does the record list as pIC50 for `COc1nc(N)nc2c1c(-c1ccsc1)cn2[C@@H]1O[C@H](CO)[C@@H](O)[C@H]1O` ?
Ans. < 4.70

Qu. For `COc1nc(N)nc2c1c(-c1ccccc1)cn2[C@@H]1O[C@H](CO)[C@@H](O)[C@H]1O` , what is its reported pIC50?
Ans. < 4.70

Qu. Quick check: pIC50 of `CNc1ncnc2c1c(-c1cccs1)cn2[C@@H]1O[C@H](CO)[C@@H](O)[C@H]1O` ?
Ans. < 4.70

Qu. Find the recorded pIC50 belonging to `CN(C)c1ncnc2c1c(-c1cc3ccccc3o1)cn2[C@@H]1O[C@H](CO)[C@@H](O)[C@H]1O` and report it.
Ans. < 4.70

Qu. Data request, read-out pIC50, for `COc1ncnc2c1c(-c1cccs1)cn2[C@@H]1O[C@H](CO)[C@@H](O)[C@H]1O`
Ans. 7.10

Qu. Field request: pIC50 | item: `C#Cc1cn([C@@H]2O[C@H](CO)[C@@H](O)[C@H]2O)c2ncnc(SC)c12`
Ans. 7.30

Qu. GET /values?readout=pIC50&item= `Cc1ncnc2c1c(I)cn2[C@@H]1O[C@H](CO)[C@@H](O)[C@H]1O`
Ans. 5.58

Qu. Can you look up the measured pIC50 of `Cc1ncnc2c1c(-c1ccco1)cn2[C@@H]1O[C@H](CO)[C@@H](O)[C@H]1O` for me?
Ans. 6.68

Qu. Given the entry `Cc1nc(N)c2c(-c3cccs3)cn([C@@H]3O[C@H](CO)[C@@H](O)[C@H]3O)c2n1` , report its measured pIC50.
Ans. < 4.70

Qu. # pIC50 lookup, item `O=c1[nH]cnc2c1c(-c1ccoc1)cn2[C@@H]1O[C@H](CO)[C@@H](O)[C@H]1O`
Ans. 5.20

Qu. What value of pIC50 has been recorded for this entry: `CN(C)c1ncnc2c1ccn2[C@@H]1O[C@H](CO)[C@@H](O)[C@H]1O`
Ans. 6.06

Qu. Bench note: what pIC50 did `Cc1nc(N)c2c(-c3ccsc3)cn([C@@H]3O[C@H](CO)[C@@H](O)[C@H]3O)c2n1` show?
Ans. < 4.70

Qu. Quick check: pIC50 of `Cc1ncnc2c1ccn2[C@@H]1O[C@H](CO)[C@@H](O)[C@H]1O` ?
Ans. 7.70

Qu. Which measured pIC50 value corresponds to `CNc1ncnc2c1c(-c1ccsc1)cn2[C@@H]1O[C@H](CO)[C@@H](O)[C@H]1O` ?
Ans. < 4.70

Qu. Which value of pIC50 has been reported for `Nc1nc2c(c(-c3ccco3)cn2[C@@H]2O[C@H](CO)[C@@H](O)[C@H]2O)c(=O)[nH]1` in the records?
Ans. < 4.70

Qu. What value of pIC50 has been reported for the following molecule? `O=c1[nH]cnc2c1c(-c1cc3ccccc3o1)cn2[C@@H]1O[C@H](CO)[C@@H](O)[C@H]1O`
Ans. < 4.70

Qu. If you can, please state the reported pIC50 value of `C#Cc1cn([C@@H]2O[C@H](CO)[C@@H](O)[C@H]2O)c2nc(N)nc(OC)c12` .
Ans. < 4.70

Qu. Record request: pIC50 value, item `CSc1ncnc2c1c(-c1ccccc1)cn2[C@@H]1O[C@H](CO)[C@@H](O)[C@H]1O`
Ans. < 4.70

Qu. # pIC50 lookup, item `Cc1nc(N)c2c(-c3ccccc3)cn([C@@H]3O[C@H](CO)[C@@H](O)[C@H]3O)c2n1`
Ans. < 4.70

Qu. Endpoint output: pIC50 of `Cc1ncnc2c1c(-c1ccoc1)cn2[C@@H]1O[C@H](CO)[C@@H](O)[C@H]1O` . Value?
Ans. < 4.82

Qu. Dear colleague, I am looking for the recorded pIC50 of the following molecule: `CSc1ncnc2c1c(-c1ccsc1)cn2[C@@H]1O[C@H](CO)[C@@H](O)[C@H]1O`
Ans. 5.34

Qu. So what's the measured pIC50 for this one? `Cc1ncnc2c1c(-c1ccccc1)cn2[C@@H]1O[C@H](CO)[C@@H](O)[C@H]1O`
Ans. < 4.70

Qu. What value of pIC50 has been recorded for this entry: `Cc1nc(N)c2c(-c3ccco3)cn([C@@H]3O[C@H](CO)[C@@H](O)[C@H]3O)c2n1`
Ans. < 4.70

Qu. Item `C#Cc1cn([C@@H]2O[C@H](CO)[C@@H](O)[C@H]2O)c2nc(C)nc(N)c12` has what recorded pIC50?
Ans. < 4.70

Qu. Which value of pIC50 has been reported for `Cc1nc(N)c2c(-c3cc4ccccc4o3)cn([C@@H]3O[C@H](CO)[C@@H](O)[C@H]3O)c2n1` in the records?
Ans. < 4.70

----------
Listed next: entries and their corresponding pEC50.
# System: Hepatitis C virus
# ASSAY_SUMMARY: Antiviral activity against Hepatitis C virus subtype 1b infected in human HuH7 cells
# Format: functional, organism-based, Hepacivirus hominis
# MEASUREMENT_CONDITIONS: genotype 1b, Huh-7
Quick note: pEC50 means taking -log10 of the concentration in moles per liter.

SMILES_TEXT | NUMERIC_VALUE
COc1ncnc2c1c(-c1ccoc1)cn2[C@@H]1O[C@H](CO)[C@@H](O)[C@H]1O | 6.48
CN(C)c1ncnc2c1c(-c1ccco1)cn2[C@@H]1O[C@H](CO)[C@@H](O)[C@H]1O | 5.83
COc1ncnc2c1c(-c1cccs1)cn2[C@@H]1O[C@H](CO)[C@@H](O)[C@H]1O | 5.97
COc1nc(N)nc2c1c(-c1cc3ccccc3o1)cn2[C@@H]1O[C@H](CO)[C@@H](O)[C@H]1O | 5.05
CSc1ncnc2c1c(I)cn2[C@@H]1O[C@H](CO)[C@@H](O)[C@H]1O | 4.72
COc1nc(N)nc2c1c(-c1ccsc1)cn2[C@@H]1O[C@H](CO)[C@@H](O)[C@H]1O | 4.84

Qu. Param item = `Cc1ncnc2c1c(I)cn2[C@@H]1O[C@H](CO)[C@@H](O)[C@H]1O` ; retrieve measured pEC50.
Ans. 5.67

Qu. Give the measured pEC50 of `C#Cc1cn([C@@H]2O[C@H](CO)[C@@H](O)[C@H]2O)c2ncnc(N(C)C)c12` .
Ans. 7.15

Qu. What value of pEC50 has been reported for the following molecule? `COc1ncnc2c1c(-c1ccccc1)cn2[C@@H]1O[C@H](CO)[C@@H](O)[C@H]1O`
Ans. 4.68

Qu. Item `Nc1nc2c(c(-c3cccs3)cn2[C@@H]2O[C@H](CO)[C@@H](O)[C@H]2O)c(=O)[nH]1` has what recorded pEC50?
Ans. 4.73

Qu. Would you kindly share the measured pEC50 for `C#Cc1cn([C@@H]2O[C@H](CO)[C@@H](O)[C@H]2O)c2ncnc(OC)c12` ?
Ans. 6.74

Qu. What does the data say about its pEC50? Entry: `CSc1ncnc2c1ccn2[C@@H]1O[C@H](CO)[C@@H](O)[C@H]1O`
Ans. 4.52
